system: Maltase-glucoamylase, intestinal (Rattus norvegicus)
test_name: Inhibition of rat intestinal maltase using maltose as substrate by colorimetric analysis
pIC50: −log10 of the molar value.
attribute_measured: pIC50

Param item = `Cc1ccc(S(=O)(=O)Nc2ccc3c(c2)C(=O)N(CCOc2ccc(O)cc2)C3=O)cc1` ; retrieve measured pIC50.
4.32

Now the compound `Nc1ccc2c(c1)C(=O)N(CCNc1ccccc1)C2=O`
3.84

[A] O=C1c2ccccc2C(=O)N1CCNc1ccccc1
[B] Cc1ccc(S(=O)(=O)Nc2ccc3c(c2)C(=O)N(CCOc2cccc(O)c2)C3=O)cc1
[C] Cc1ccc(S(=O)(=O)Nc2ccc3c(c2)C(=O)N(CCNc2ccc(O)c(O)c2)C3=O)cc1
[D] O=C1c2ccc([N+](=O)[O-])cc2C(=O)N1CCNc1ccccc1
Hello, I need these entries ordered by pIC50, highest reading first. Thanks! # answer = labels listed in requested order
C, B, D, A

---

system: Maltase-glucoamylase, intestinal (Rattus norvegicus)
test_name: Inhibition of rat intestinal maltase using maltose as substrate by colorimetric analysis
pIC50: −log10 of the molar value.
attribute_measured: pIC50

For the compound `Cc1ccc(S(=O)(=O)Nc2ccc3c(c2)C(=O)N(Cc2ccc(Cl)c(Cl)c2)C3=O)cc1` , what pIC50 is on record?
3.91

Another compound: `Cc1ccc(S(=O)(=O)Nc2ccc3c(c2)C(=O)N(Cc2ccccc2F)C3=O)cc1`
3.71

[I] Cc1ccc(S(=O)(=O)Nc2ccc3c(c2)C(=O)N(Cc2ccc(Cl)cc2)C3=O)cc1
[II] Cc1ccc(S(=O)(=O)Nc2ccc3c(c2)C(=O)N(CCNc2ccccc2)C3=O)cc1
Returns: the argument ( I or II ) having the larger pIC50. # answer = label of selected item
II

---

pIC50: −log10 of the molar value.
The following are reported pIC50 results, target or system Lactase/phlorizin hydrolase (Rattus norvegicus).
attribute_measured: pIC50

Lab note: need pIC50 with Lactase/phlorizin hydrolase (Rattus norvegicus) for entry `Cc1ccc(S(=O)(=O)Nc2ccc3c(c2)C(=O)N(CCOc2cccc(O)c2)C3=O)cc1` , please look it up.
3.96

[1] C[C@H]1O[C@H](O[C@H]2[C@H](O)[C@@H](O)[C@@H](O[C@H]3[C@H](O)[C@@H](O)C(O)O[C@@H]3CO)O[C@@H]2CO)[C@H](O)[C@@H](O)[C@@H]1N[C@H]1C=C(CO)[C@@H](O)[C@H](O)[C@H]1O (stereo partly specified)
[2] Cc1ccc(S(=O)(=O)Nc2ccc3c(c2)C(=O)N(Cc2ccc(Cl)c(Cl)c2)C3=O)cc1
Returns the identifier with the smallest measured pIC50 among 1 and 2 . Answer with the label corresponding to your selection.
1
(1: 3.78, 2: 4.00)

---

test_name: Inhibition of Saccharomyces cerevisiae alpha-glucosidase using 4-nitrophenyl alpha D-glucopyranoside as substrate assessed as release of 4-nitrophenol incubated for 5 mins prior to substrate addition measured after 10 mins
pIC50: −log10 of the molar value.
attribute_measured: pIC50

The cases that follow already have their pIC50 on record.
Which pIC50 is reported for this compound? `Cc1ccc(S(=O)(=O)Nc2ccc3c(c2)C(=O)N(Cc2ccc(C#N)cc2)C3=O)cc1`
4.18

Another compound to look at: `Cc1ccc(S(=O)(=O)Nc2ccc3c(c2)C(=O)N(Cc2ccc(Cl)c(Cl)c2)C3=O)cc1`
4.54

// same read-out, input: `Cc1ccc(S(=O)(=O)Nc2ccc3c(c2)C(=O)N(CCNc2ccc(O)c(O)c2)C3=O)cc1`
4.35

Next up: `Cc1ccc(S(=O)(=O)Nc2ccc3c(c2)C(=O)N(Cc2ccc(C(N)=O)cc2)C3=O)cc1`
4.22

// repeat for `Cc1ccc(S(=O)(=O)Nc2ccc3c(c2)C(=O)N(Cc2ccccc2F)C3=O)cc1` and report
4.39

[a] Cc1ccc(S(=O)(=O)Nc2ccc3c(c2)C(=O)N(CCCCBr)C3=O)cc1
[b] C[C@H]1O[C@H](O[C@H]2[C@H](O)[C@@H](O)[C@@H](O[C@H]3[C@H](O)[C@@H](O)C(O)O[C@@H]3CO)O[C@@H]2CO)[C@H](O)[C@@H](O)[C@@H]1N[C@H]1C=C(CO)[C@@H](O)[C@H](O)[C@H]1O (some centres not stated)
[c] Cc1ccc(S(=O)(=O)Nc2ccc3c(c2)C(=O)N(Cc2ccc(Cl)cc2)C3=O)cc1
[d] Nc1ccc2c(c1)C(=O)N(CCNc1ccccc1)C2=O
In this exercise, place the 4 compounds in ascending sequence of their recorded pIC50. # list labels per requested ordering
b, d, a, c

[a] Cc1ccc(S(=O)(=O)Nc2ccc3c(c2)C(=O)N(Cc2ccc(F)cc2)C3=O)cc1
[b] O=C1c2ccc([N+](=O)[O-])cc2C(=O)N1CCNc1ccccc1
[c] Cc1ccc(S(=O)(=O)Nc2ccc3c(c2)C(=O)N(CCOc2ccc(O)cc2)C3=O)cc1
Falling order of pIC50, please. # the answer lists labels in the order requested
c, a, b

---

Quick list: pIC50 per entry.
system: Maltase-glucoamylase, intestinal (Rattus norvegicus)
test_name: Inhibition of rat intestinal maltase using maltose as substrate by colorimetric analysis
pIC50: −log10 of the molar value.

Value lookup for pIC50; key = `Cc1ccc(S(=O)(=O)Nc2ccc3c(c2)C(=O)N(CCBr)C3=O)cc1`
< 3.70

Would you mind doing `Cc1ccc(S(=O)(=O)Nc2ccc3c(c2)C(=O)N(C)C3=O)cc1` as well?
< 3.70

Again, but for `Cc1ccc(S(=O)(=O)Nc2ccc3c(c2)C(=O)N(Cc2ccccc2)C3=O)cc1`
< 3.70

---

system: Lactase/phlorizin hydrolase (Rattus norvegicus, UniProt Q02401)
Sequence (Q02401 868-1928 limits assumed): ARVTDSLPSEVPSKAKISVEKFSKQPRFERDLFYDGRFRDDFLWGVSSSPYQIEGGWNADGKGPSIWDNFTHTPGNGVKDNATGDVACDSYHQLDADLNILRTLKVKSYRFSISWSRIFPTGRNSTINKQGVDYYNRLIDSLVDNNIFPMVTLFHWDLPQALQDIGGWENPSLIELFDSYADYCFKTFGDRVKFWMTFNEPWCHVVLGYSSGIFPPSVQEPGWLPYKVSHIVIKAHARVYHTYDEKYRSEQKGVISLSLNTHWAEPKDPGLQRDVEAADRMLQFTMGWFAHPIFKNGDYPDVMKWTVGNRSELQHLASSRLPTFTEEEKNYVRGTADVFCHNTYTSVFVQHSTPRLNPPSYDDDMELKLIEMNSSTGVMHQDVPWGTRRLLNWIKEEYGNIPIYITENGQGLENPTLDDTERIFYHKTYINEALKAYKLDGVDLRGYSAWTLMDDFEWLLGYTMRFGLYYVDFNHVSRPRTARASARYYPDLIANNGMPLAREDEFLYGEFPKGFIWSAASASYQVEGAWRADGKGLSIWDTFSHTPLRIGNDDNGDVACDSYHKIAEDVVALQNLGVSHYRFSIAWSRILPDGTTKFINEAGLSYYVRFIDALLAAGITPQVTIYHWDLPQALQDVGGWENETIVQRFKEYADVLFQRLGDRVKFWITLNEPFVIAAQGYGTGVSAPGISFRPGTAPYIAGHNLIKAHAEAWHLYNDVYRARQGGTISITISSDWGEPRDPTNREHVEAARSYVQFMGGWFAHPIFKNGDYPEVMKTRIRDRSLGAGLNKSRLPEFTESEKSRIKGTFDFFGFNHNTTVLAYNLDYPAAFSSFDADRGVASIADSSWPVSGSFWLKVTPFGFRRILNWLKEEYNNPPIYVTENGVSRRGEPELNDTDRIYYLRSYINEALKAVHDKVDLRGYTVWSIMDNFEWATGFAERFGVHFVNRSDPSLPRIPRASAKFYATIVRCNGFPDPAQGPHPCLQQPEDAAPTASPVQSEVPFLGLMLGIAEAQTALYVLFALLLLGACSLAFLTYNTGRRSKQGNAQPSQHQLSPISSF
# IC50 per entry

Known results for compounds:
Item under review: `O=C1c2ccccc2C(=O)N1CCNc1ccccc1` . Reported IC50?
> 200 µM

Then what about the compound `Cc1ccc(S(=O)(=O)Nc2ccc3c(c2)C(=O)N(CCBr)C3=O)cc1` ?
> 200 µM

// next entry
Field request: IC50 | item: `O=C1c2ccc([N+](=O)[O-])cc2C(=O)N1CCNc1ccccc1`
> 200 µM

---

test_name: Inhibition of Saccharomyces cerevisiae alpha-glucosidase using 4-nitrophenyl alpha D-glucopyranoside as substrate assessed as release of 4-nitrophenol incubated for 5 mins prior to substrate addition measured after 10 mins
pIC50: −log10 of the molar value.
attribute_measured: pIC50

Example cases with answers are listed next.
Request the reported pIC50 associated with `Cc1ccc(S(=O)(=O)Nc2ccc3c(c2)C(=O)N(N2CCOCC2)C3=O)cc1`
4.28

Also `Cc1ccc(S(=O)(=O)Nc2ccc3c(c2)C(=O)N(Cc2ccccc2)C3=O)cc1` ?
4.27

What would you report for `Cc1ccc(S(=O)(=O)Nc2ccc3c(c2)C(=O)N(CCNc2ccccc2)C3=O)cc1` ?
4.23

Another compound to look at: `Cc1ccc(S(=O)(=O)Nc2ccc3c(c2)C(=O)N(CCBr)C3=O)cc1`
4.03

[A] Cc1ccc(S(=O)(=O)Nc2ccc3c(c2)C(=O)N(CCOc2ccccc2)C3=O)cc1
[B] Cc1ccc(S(=O)(=O)Nc2ccc3c(c2)C(=O)N(CCOc2cccc(O)c2)C3=O)cc1
Between the two listed entries A and B , which has its pIC50 at the higher number? In your reply, give the label of the chosen option.
B

---

test_name: Inhibition of Saccharomyces cerevisiae alpha-glucosidase using 4-nitrophenyl alpha D-glucopyranoside as substrate assessed as release of 4-nitrophenol incubated for 5 mins prior to substrate addition measured after 10 mins
attribute_measured: IC50 (µM)

Look up IC50 for this compound: `Cc1ccc(S(=O)(=O)Nc2ccc3c(c2)C(=O)N(Cc2ccc(O)c(O)c2)C3=O)cc1`
72.6

What do you have for `Cc1ccc(S(=O)(=O)Nc2ccc3c(c2)C(=O)N(CCCBr)C3=O)cc1` ?
88.4
